- SYSTEM: recombinant α1d-adrenoceptor (Homo sapiens)
- Construct: expressed in transfected cells
- Sequence (P25100 1-572): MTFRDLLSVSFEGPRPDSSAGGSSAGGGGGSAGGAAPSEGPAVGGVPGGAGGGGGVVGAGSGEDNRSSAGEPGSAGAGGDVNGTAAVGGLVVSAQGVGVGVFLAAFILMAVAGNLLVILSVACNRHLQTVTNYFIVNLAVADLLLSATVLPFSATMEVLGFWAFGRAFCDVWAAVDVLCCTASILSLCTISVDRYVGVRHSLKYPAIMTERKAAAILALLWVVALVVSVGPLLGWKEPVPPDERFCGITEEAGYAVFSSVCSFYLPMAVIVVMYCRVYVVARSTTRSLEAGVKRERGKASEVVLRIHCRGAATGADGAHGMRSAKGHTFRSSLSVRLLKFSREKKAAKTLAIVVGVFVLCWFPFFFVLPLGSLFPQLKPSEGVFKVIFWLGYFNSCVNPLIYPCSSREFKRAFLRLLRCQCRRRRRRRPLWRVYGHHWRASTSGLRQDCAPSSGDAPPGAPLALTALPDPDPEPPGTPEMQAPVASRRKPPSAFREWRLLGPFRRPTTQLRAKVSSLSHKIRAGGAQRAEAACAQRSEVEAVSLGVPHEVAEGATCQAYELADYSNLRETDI
- TEST: Radioligand binding ([3H]prazosin) to cloned α1d adrenoceptor
- STUDY_CONDITIONS: read-out: Affinity (Ki) α1d
pKi: −log10 of the molar value.
MEASUREMENT_NAME: pKi

compound="COc1ccc(Cl)cc1N1CCN(CCCNC(=O)c2csc3c(=O)cc(-c4ccccc4)oc23)CC1 [Example 1]" quantitative_result=8.39
compound="O=C(NCCCN1CCN(c2ccc(F)cc2OCC(F)(F)F)CC1)c1csc2c(=O)cc(-c3ccccc3)oc12 [Example 7]" quantitative_result=8.61
compound="COc1ccccc1N1CCN(CCCNC(=O)c2csc3c(=O)cc(C(F)(F)F)oc23)CC1 [Example 4]" quantitative_result=8.44

1. COc1ccccc1N1CCN(CCCNC(=O)c2csc3c(=O)cc(-c4ccccc4)oc23)CC1 [Example 2]
2. O=C(NCCCN1CCN(c2ccccc2OCC(F)(F)F)CC1)c1csc2c(=O)cc(-c3ccccc3)oc12 [Example 5]
3. COc1ccc(OCC(F)(F)F)cc1N1CCN(CCCNC(=O)c2csc3c(=O)cc(-c4ccccc4)oc23)CC1 [Example 6]
Sort entries by pKi from minimum to maximum value. The labels, placed in the requested order, form the answer.
3, 1, 2
(3: 7.32, 1: 8.61, 2: 9.00)
